Measured values drawn from patent US12336981B2 for this set.

Molecular target: NAMPT (Homo sapiens, UniProt P43490)
Construct: His tag; host or cells: E. coli
Sequence (P43490 whole entry): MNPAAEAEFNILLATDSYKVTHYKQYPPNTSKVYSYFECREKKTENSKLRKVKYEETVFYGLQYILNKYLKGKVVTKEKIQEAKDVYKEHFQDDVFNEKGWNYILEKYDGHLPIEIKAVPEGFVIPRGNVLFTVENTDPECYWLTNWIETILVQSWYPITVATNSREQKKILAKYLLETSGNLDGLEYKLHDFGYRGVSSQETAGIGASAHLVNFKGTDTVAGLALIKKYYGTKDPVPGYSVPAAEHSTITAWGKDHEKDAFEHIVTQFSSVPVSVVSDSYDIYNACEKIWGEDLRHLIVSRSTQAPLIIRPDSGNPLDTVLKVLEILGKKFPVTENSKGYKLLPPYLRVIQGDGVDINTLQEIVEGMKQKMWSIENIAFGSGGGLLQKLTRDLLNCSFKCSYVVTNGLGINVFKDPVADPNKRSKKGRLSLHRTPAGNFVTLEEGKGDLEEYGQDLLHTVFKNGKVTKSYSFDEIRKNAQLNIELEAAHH
Test: Biochemical inhibition assay: NAMPT enzymatic reaction, NMN quantified by mass spectrometry
Details: NAMPT enzymatic reaction; read-out: Biochem IC50
Source text: Biochemical Inhibition Assay NAMPT Protein Purification Recombinant His-tagged NAMPT was produced in E. coli cells, purified over a Ni column, and further purified over a size-exclusion column by XTAL Biostructures. The NAMPT Enzymatic Reaction […] A mass spectrometry-based assay was used to measure the NAMPT reaction product (NMN) and the internal control (L-Cystathionine). NMN and L-Cystathionine were detected using the services of Biocius Lifesciences with the RapidFire system. […]
pIC50: −log10 of the molar value.
Use 8 as the dividing line for pIC50, with the line itself on the true side and lower values as false.

>>> assignedcategory("O=C(NCc1ccc(S(=O)(=O)c2ccc(-c3ccccc3)cc2)cc1)c1cc2ccncc2s1")
"true"
>>> assignedcategory("CC(=O)c1ccc(S(=O)(=O)c2ccc(CNC(=O)c3cc4ccncc4s3)cc2)cc1")
"true"

INPUT: Answer whether pIC50 of COc1cccc(S(=O)(=O)c2ccc(CNC(=O)c3cnc4nccn4c3)cc2)c1 is greater than or equal to 8.
OUTPUT: true

----------
For each of the compounds below, state its log10(IC50).
biological target: NAMPT (Homo sapiens, UniProt P43490); construct: His tag; host or cells: E. coli; assay: Biochemical inhibition assay: NAMPT enzymatic reaction, NMN quantified by mass spectrometry; conditions: NAMPT enzymatic reaction; read-out: Biochem IC50
Each number you see is log10 of IC50, and the unit inside the log is nM.

See these solved cases before continuing.
>>> experimentalvalue("COc1cc(S(=O)(=O)c2ccc(CNC(=O)c3ccc4nccn4c3)cc2)ccc1Cl")
1.13
>>> experimentalvalue("O=C(NCc1ccc(S(=O)(=O)N2CC3CCC(C2)O3)cc1)c1ccc2nccn2c1")
0.60
>>> experimentalvalue("CCCOc1ccc(Cl)cc1S(=O)(=O)c1ccc(CNC(=O)c2cc3ccncc3o2)cc1")
0.90
>>> experimentalvalue("O=C(NCc1ccc(S(=O)(=O)c2cccc(F)c2)cc1)c1cc2cnccc2[nH]1")
0.95
>>> experimentalvalue("O=C(NCc1ccc(S(=O)(=O)c2cc(F)cc(Cl)c2)cc1)c1cc2ccncc2s1")
0.15
>>> experimentalvalue("O=C(NCc1ccc(S(=O)(=O)Cc2ccccc2)cc1)c1cc2cnccc2[nH]1")
1.46

Here's the next entry for you.
INPUT: Quote log10(IC50) with test system NAMPT (Homo sapiens, UniProt P43490) for Cc1ccccc1S(=O)(=O)c1ccc(CNC(=O)c2cnc3[nH]ncc3c2)cc1
OUTPUT: 1.97

----------
biological target: NAMPT (Homo sapiens, UniProt P43490); construct: His tag; host or cells: E. coli; assay: Biochemical inhibition assay: NAMPT enzymatic reaction, NMN quantified by mass spectrometry; conditions: NAMPT enzymatic assay; read-out: Biochem IC50
For each of the compounds below, state its pIC50.
Numbers only, as −log10 of the molar value.

>>> experimentalvalue("O=C(NCc1ccc(S(=O)(=O)c2ccc3c(c2)OCO3)cc1)c1ccc2nccn2c1")
7.97
>>> experimentalvalue("COc1ccc(S(=O)(=O)c2ccc(CNC(=O)c3cnc4nccn4c3)cc2)c(C(F)(F)F)c1")
8.15
>>> experimentalvalue("O=C(NCc1ccc(S(=O)(=O)c2cc(F)cc(C(F)(F)F)c2)cc1)c1cnc2nccn2c1")
8.23
>>> experimentalvalue("O=C(NCc1ccc(S(=O)(=O)c2ccc(-n3cccn3)cc2)cc1)c1cc2ccncc2o1")
8.39
>>> experimentalvalue("O=C(NCc1ccc(S(=O)(=O)c2cccc(OCCN3CCOCC3)c2)cc1)c1cnc2nccn2c1")
8.51

Look at each compound and report its pIC50.
1. O=C(NCc1ccc(S(=O)(=O)c2ccc(OC(F)(F)F)cc2)cc1)c1cc2ccncc2o1
2. O=C(NCc1ccc(S(=O)(=O)c2cccc(-c3ccc(F)c(F)c3)n2)cc1)c1cnc2[nH]ncc2c1
3. O=C(NCc1ccc(S(=O)(=O)c2ccc(Cl)cc2C(F)(F)F)cc1)c1ccc2nccn2c1
4. O=C(NCc1ccc(S(=O)(=O)c2ccc3c(c2)OCO3)cc1)c1cc2ccncc2o1
5. CC(C)c1cccc(S(=O)(=O)c2ccc(CNC(=O)c3cnc4[nH]ncc4c3)cc2)c1
6. O=C(NCc1ccc(S(=O)(=O)c2cc(F)ccc2CO)cc1)c1cnc2[nH]ncc2c1

OUTPUT:
[8.03, 7.75, 7.70, 8.28, 7.86, 6.96]

Look at each compound and report its pIC50.
1. O=C(NCc1ccc(S(=O)(=O)c2ccc(F)c(C(F)(F)F)c2)cc1)c1ccc2nccn2c1
2. Cc1ccncc1S(=O)(=O)c1ccc(CNC(=O)c2cnc3nccn3c2)cc1
3. O=C(NCc1ccc(S(=O)(=O)c2cccc(-c3ccc(F)c(F)c3)n2)cc1)c1cc2cnccc2[nH]1
4. CC(C)COc1cccc(S(=O)(=O)c2ccc(CNC(=O)c3ccc4nccn4c3)cc2)c1

OUTPUT:
8.40
7.72
7.80
7.80

Look at each compound and report its pIC50.
1. O=C(NCc1ccc(S(=O)(=O)c2cncc(Cl)c2)cc1)c1ccc2nccn2c1
2. O=C(NCc1ccc(S(=O)(=O)c2cnc(N3CCCC3)s2)cc1)c1ccc2nccn2c1

OUTPUT:
1: 7.61; 2: 8.62

Look at each compound and report its pIC50.
1. CCN(CC)C(=O)c1cc(F)cc(S(=O)(=O)c2ccc(CNC(=O)c3cc4ccncc4o3)cc2)c1
2. O=C(NCc1ccc(S(=O)(=O)c2cnc3ccccc3c2)cc1)c1cc2ccncc2o1
3. CC(C)Oc1cccc(S(=O)(=O)c2ccc(CNC(=O)c3cnc4nccn4c3)cc2)c1
4. O=C(NCc1ccc(S(=O)(=O)c2ccc(N3CCOCC3)cc2)cc1)c1cnc2[nH]ncc2c1
5. O=C(NCc1ccc(S(=O)(=O)c2cccc(C(F)(F)F)n2)cc1)c1cnc2[nH]ncc2c1
6. O=C(NCc1ccc(S(=O)(=O)c2cc(C(F)(F)F)ccc2OCc2ccccc2)cc1)c1cnc2nccn2c1

OUTPUT:
7.99
8.38
8.64
8.35
7.62
7.48

Look at each compound and report its pIC50.
1. O=C(NCc1ccc(S(=O)(=O)c2cc(F)cc(OCC(F)(F)F)c2)cc1)c1cc2cnccc2[nH]1
2. O=C(NCc1ccc(S(=O)(=O)c2ccc3c(c2)OCCO3)cc1)c1cnc2nccn2c1
3. O=C(NCc1ccc(S(=O)(=O)c2cnc3ccccc3c2)cc1)c1cc2cnccc2[nH]1
4. O=C(NCc1ccc(S(=O)(=O)Nc2ccccc2CCO)cc1)c1cc2cnccc2[nH]1
5. CC(C)c1cccc(S(=O)(=O)c2ccc(CNC(=O)c3cc4ccncc4o3)cc2)c1
6. O=C(NCc1ccc(S(=O)(=O)c2cccc3c2Oc2ccccc2S3)cc1)c1cnc2[nH]ncc2c1
7. CCCn1cc(S(=O)(=O)c2ccc(CNC(=O)c3cnc4[nH]ncc4c3)cc2)cn1

OUTPUT:
1. 8.25
2. 9.70
3. 7.79
4. 7.73
5. 8.35
6. 7.83
7. 8.10

Look at each compound and report its pIC50.
1. Cc1cc(C)n(-c2cccc(S(=O)(=O)c3ccc(CNC(=O)c4cnc5[nH]ncc5c4)cc3)c2)n1
2. O=C(NCc1ccc(S(=O)(=O)c2cncc(N3CCCC3)c2)cc1)c1ccc2ncsc2c1
3. CCCS(=O)(=O)Nc1cccc(S(=O)(=O)c2ccc(CNC(=O)c3cc4ccncc4s3)cc2)c1
4. CC(C)COc1ccc(S(=O)(=O)c2ccc(CNC(=O)c3cc4ccncc4s3)cc2)cc1
5. O=C(NCc1ccc(S(=O)(=O)c2ccc(OC(F)(F)F)c(F)c2)cc1)c1ccc2nccn2c1
6. O=C(NCc1ccc(S(=O)(=O)c2ccc(OC(F)(F)F)c(F)c2)cc1)c1cc2ccncc2s1

OUTPUT:
1. 7.60
2. 8.04
3. 8.82
4. 8.40
5. 8.08
6. 7.94
